Test: yeast display, Sf9 membrane polyspecificity reagent, FACS + sequencing; frameworks hold sequencing errors
MEASUREMENT TYPE: polyreactivity (PSR sort gate)

>  <CONSTRUCT SEQUENCE>
QVQLVESVGGLVQAGGSLRISCAASGRITQIYAMGWSRQAPRKEWELVARITSTDSTYYADSVKGRFTISRDNAKKTVYLKMNSLTPEDTAVYYCAASWWSPYDYWGQGTQVTVSS

>  <polyreactivity (PSR sort gate)>
low polyreactivity

$$$$
>  <CONSTRUCT SEQUENCE>
QVQLVDSGGGLVQAGGSLRLSCAASGFKFGTYAMGWYRQAPGKERELVAGISRRSGSTIYADSVKGRFTISRDNAKNTVYLQMNSLKPEDTAVYYCNVDRPDATWSWWEYGYWGQGTQVTVSS

>  <polyreactivity (PSR sort gate)>
high polyreactivity

$$$$
>  <CONSTRUCT SEQUENCE>
QVQLLESGGGLVQAGGSLRLSCASSGRTFVYYAMGRYRQAPGKERELVAAITFSGGSTYYADSVKGRFTISRDNAKNTVYLQMNSLKPEDTAVYYCAAQYRYSYPLGDYWGQGPQVTVSS

>  <polyreactivity (PSR sort gate)>
low polyreactivity

$$$$
>  <CONSTRUCT SEQUENCE>
QVQLVESGGGLVQAGGSHRLSCAASGSIFKRNAMRSYRQAPGKERELVAAISRSGGSTYYADSVKGRFTISRDFAKNTVYLQMNSLKPEDTAVYYCDARRKLGYGSENDYWGQGTQVTVSS

>  <polyreactivity (PSR sort gate)>
high polyreactivity

$$$$

Read the next record carefully.
Would you kindly share the measured polyreactivity (PSR sort gate) for QVQLVESGGGLVQAGGSLRLSCAASGRIFWGYAMGWSRQAPGKERELVAGITYSGGSTYYADSVKGRFTISRDNAKNTVYLQMNSLKPEDTAVYYCAAAKSYRSGSWYEYWGQGTEVTVSS ?
high polyreactivity

---

Assay: yeast display, Sf9 membrane polyspecificity reagent, FACS + sequencing; frameworks hold sequencing errors
MEASUREMENT TYPE: polyreactivity (PSR sort gate)

Example sequences with recorded polyreactivity (PSR sort gate):
>  <CONSTRUCT SEQUENCE>
QVQLVESGGGLVQAGGSLRLSCAAYGSIFTGNTMGWYRQATGKERELVATISRRGGSTYYADSVKGRFTISRDNAKNTVYLQMNSLKPEDTAVYYCARGTVYLTWRNDYWGQGTQVTVSS

>  <MEASUREMENT TYPE>
polyreactivity (PSR sort gate)

>  <RESULT>
high polyreactivity

$$$$
>  <CONSTRUCT SEQUENCE>
QVQLVESGGGLVQAGGSLRLSCAASGSIFGNNAMGWYRQAPGKERELVAGINYSGGRTYYADSVKGRFTISRDNAKNTVYLQMNSLKPEDTAVYYCAADGHRQVGWWRFEYGYWGQGTQVTVSS

>  <MEASUREMENT TYPE>
polyreactivity (PSR sort gate)

>  <RESULT>
low polyreactivity

$$$$
>  <CONSTRUCT SEQUENCE>
QVQLVESGGGLVQAGGSLRLSCAASGIIFTWYAMGWYRQAPGKERELVAAISGSGDITYYADSVKGRFTISRDNAKNTVFLQMNSLKPEDTAVYYCAADPWTYWEDYDYWGQGTQVTVSS

>  <MEASUREMENT TYPE>
polyreactivity (PSR sort gate)

>  <RESULT>
low polyreactivity

$$$$
>  <CONSTRUCT SEQUENCE>
QVQLLESGGGLVQAGGSLRLSCAASVSIFPKNTMGWYIQAPGKERELVAAISKSGGSTYYADSVKGRFTISRDNAKNTVYLQMNSLKPEDTAVYYCAAALGLRSTSWGRRGGGGDYWGQGTQVTGSS

>  <MEASUREMENT TYPE>
polyreactivity (PSR sort gate)

>  <RESULT>
high polyreactivity

$$$$

Would you kindly share the measured polyreactivity (PSR sort gate) for QVQHVESGGGLVQAGGSLRLSCAASGRTFFENAMGWYRQAPGKEMELVAAISWDGGTTYADSVKGRFSISRDNAKNTVYLQMNSLKPEDTAVYYCNAEVRSNDARGDNDYCGQGTQVTVSS ?
low polyreactivity

---

Assay: yeast display, Sf9 membrane polyspecificity reagent, FACS + sequencing; frameworks hold sequencing errors
MEASUREMENT TYPE: polyreactivity (PSR sort gate)

Example sequences with recorded polyreactivity (PSR sort gate):
>  <CONSTRUCT SEQUENCE>
QVQLVESGGGLVQAGGSLRLSCAASGGIFWFNAMGRYRQAPGKEREFVAAITWRGGSTYYADSVKGRFTISRDNAKNTVYLQMHSLKPEDTAVYYCAATYWWHRSSGWDRVEYWGQGTQVNVSS

>  <RESULT>
high polyreactivity

$$$$
>  <CONSTRUCT SEQUENCE>
QVQLVESGGGLVQAGGSLRLSCDASGFTFRAYPIGWYREAPGKERELVAAITYSGGRTYYADSVKGRFTISRDNAKNTVYLQMNSLKPEDTAVYYCANYDYWGQGTQVTVSS

>  <RESULT>
high polyreactivity

$$$$
>  <CONSTRUCT SEQUENCE>
QVQLVESGRGLVQAGGSLRLSCAASGFTFVYYAMGWYRQAPGKERELVATISGNGGRTYYADSVKGRFTISRDNAKNTVYLQMNSLKPEDTAVYYCAALLYIRSVGYDYWGQGTQVTVSS

>  <RESULT>
low polyreactivity

$$$$
>  <CONSTRUCT SEQUENCE>
QVQLVESGGGLVQAGGSLRLSCAASGGIFRYNAMGWYRQAPGKERELVAAISYRGGSTYYADSVKGRFTISRDNAKNTVYLQMNSLKPEDTAVYYCAAVYYQDKRGDYWGQGTQVTVSS

>  <RESULT>
high polyreactivity

$$$$

Read the next record carefully.
Would you kindly share the measured polyreactivity (PSR sort gate) for QVQLVESGGGLVQAGGSLRLSCAASGRTFYFYAMGWYRQAPGKERELVAAISWTGGITYYADSVKGRFTISRDNAKNTVYLQMNSLKPEDTAVYYCAAGYYYKVYWGQGTQVTVSS ?
low polyreactivity

---

Test: yeast display, Sf9 membrane polyspecificity reagent, FACS + sequencing; frameworks hold sequencing errors
MEASUREMENT TYPE: polyreactivity (PSR sort gate)

Example sequences with recorded polyreactivity (PSR sort gate):
>  <CONSTRUCT SEQUENCE>
QVQLVESGGGLVQAGGSLRLSCAASGYIFRAYAMGWYRQAPGKERELVAAITKRSGTTYYADSVKGRFTISRDNAKNTVYLQMNSLKPEDTAVYYCAAKTLYNSGTQDRAMGYWGQGTQVTVSS

>  <polyreactivity (PSR sort gate)>
high polyreactivity

$$$$
>  <CONSTRUCT SEQUENCE>
QVQLVESGGGLVQAGGSLRLSCAASGFIFVRYAMGWSRPAPGKERELVDAISGSGGRTYYADSVKGRFTISRDNAKNTVYLQMNSLIPEDTAVYYCNVKSYTYGYLPYDYWGQGTQVTVSS

>  <polyreactivity (PSR sort gate)>
high polyreactivity

$$$$
>  <CONSTRUCT SEQUENCE>
QVQLVESGGGLVQAGGSLRLSCAASGSIFRYYAMGWYRQAPGKERELVAAITRRGGSTYYADSVKGRFTISRDNAKNTVYLQMNSLKPEDTAVYYCAASHGYQYEYWGQGTQVTVSS

>  <polyreactivity (PSR sort gate)>
high polyreactivity

$$$$
>  <CONSTRUCT SEQUENCE>
QVQLVESGGGLVQAGGSLRLSCAASGSTFYDYAMGWYRQAPGKERELVAAITSGGSTDYADSVKGRFTISRDNAKNTVYLQMNSLKPEDTAVYYCATDTDSNYISHQFVWYDYWGQGTQVTVSS

>  <polyreactivity (PSR sort gate)>
low polyreactivity

$$$$
>  <CONSTRUCT SEQUENCE>
QVQLVESGGGLVQAGGSLRLSCAASGRTFPYYVMGWYRQAPGKERELVAAISTTGGSTYYADSVKGRFTISRDNAKNTVYLQMNSLKPEDTAVYYCAARRLIRDNLGYDYWGQGTQVTVSS

>  <polyreactivity (PSR sort gate)>
high polyreactivity

$$$$

Would you kindly share the measured polyreactivity (PSR sort gate) for QVQLVESGGGLVQAGGSLRLSCAASGRTVWDSAMGWYRQAPGNERELVAAIASNTGSTYYADSVKGRFTISRDNAKNTVYLQLNSLKPEDTAVYYCNVEYYYDFNFNYDDYEFDYWGQGTHVTVSS ?
high polyreactivity

Would you kindly share the measured polyreactivity (PSR sort gate) for QVQLVESGGGLVQAGGSLRLSCAASGFTFDYYVMGWYIQAPGKERELVAAITFSATSTYYADSVKGRYTISRDNAKNTVYLQMNSLNPEDTAVYYCAAVICNWQYQYYYWGQGTKVTVSS ?
low polyreactivity

Would you kindly share the measured polyreactivity (PSR sort gate) for QVQLVESGGGLVQAGGRLRLSCAASGSILVFYARGWYRQAPGKERELVAAITSGASTNYADSVKGRFTISRDNAKNTVYLQMNSLKPEDTAVYYCAAGFQTRTPLNEFDYWGQGTQVTVSS ?
low polyreactivity

Would you kindly share the measured polyreactivity (PSR sort gate) for QVQLVESGGGLVQAGGILRLSCAASGRIFYGYAMGWYRQAPGKERELVAAISSDGRTYYADSVKGRFTISRDNAKNTVYLQLNSLKPEDTAVYYCAKVPYSGYDYVYWDPSIFEYDYWGQGTQVTVSS ?
low polyreactivity

Would you kindly share the measured polyreactivity (PSR sort gate) for QVQLVESGGGLVQAGGSLRLSCAASGRTFTVYAMGWYRQAPGKERELVAAIRRTGSTYYADSVKGRFTISRDNAKNTVYLQMNSLKPEDTAVYYCNAEGSSVLTGYWGYPPYWDTYDYWGQGTQVTVSS ?
low polyreactivity

Would you kindly share the measured polyreactivity (PSR sort gate) for QVQLVESGGGLVQAGGSLRLSCAASGSIFTHNDMGWYRQAPGQERELVAAISSGGSTNYADSVTGRFTISRDNAKNTVYLQMNSLIPVETAVYYCAKSIDGWYWRRRRYDYWGQGTQVTVSS ?
low polyreactivity
